Test Name: Bidirectional permeability assay (Caco-2 cells)
Format: in vitro ADME
Condition: human, Caco-2, pH 7.4; secretory direction (B2A); 10 μM in FaSSIF buffer; 120 minutes at 37° C.
Measured Attribute: Papp B→A at 120 min, 10 μM (nm/s)
Answers are plain numbers, in nm/s.

{"columns": ["Compound", "Uom", "Papp B→A at 120 min, 10 μM"],
 "data": [
  ["CCCCC1(CCCC)CN(c2ccc(OC)cc2)c2cc(SC)c(OCC(=O)O)cc2S(=O)(=O)C1", "nm/s", 66],
  ["CCCCC1(CC)CN(c2ccccc2)c2cc(N(C)C)c(OCC(=O)O)cc2S(=O)(=O)C1 (single isomer, unassigned)", "nm/s", 237],
  ["CCCCC1(CCCC)CN(c2ccc(C#N)cc2)c2cc(SC)c(OCC(=O)O)cc2S(=O)(=O)C1", "nm/s", 145],
  ["CCCCC1(CCCC)CN(c2ccccc2)c2cc(N(C)C)c(OCC(=O)O)cc2S(=O)(=O)C1", "nm/s", 94],
  ["CCCCC1(CCCC)CN(c2ccc(O)cc2)c2cc(SC)c(OCC(=O)O)cc2S(=O)(=O)C1", "nm/s", 89],
  ["CCCCC1(CC)CN(c2ccc(F)cc2)c2cc(SC)c(OCC(=O)O)cc2S(=O)(=O)C1 (single isomer, unassigned)", "nm/s", 129]
]}

Now consider the entry below.
Papp B→A at 120 min, 10 μM for `CCCCC1(CCCC)CN(c2ccc(Br)cc2)c2cc(SC)c(OCC(=O)O)cc2S(=O)(=O)C1` is 19

meta.source: patent US11014898B1
